src = ChEMBL document CHEMBL1136001

pKi: −log10 of the molar value. Non-standard residues stand in square brackets, D forms with d. Residues, ends and D or L forms follow the SMILES beside them. *: point of attachment. Cbz = O=C(OCc1ccccc1)*; NHBn = c1ccc(CN*)cc1; OBn = c1ccc(CO*)cc1; azaGly = NNC(=O)O
Consider the following pKi values measured on Cathepsin K (Homo sapiens, UniProt P43235).
Sequence (P43235 whole entry): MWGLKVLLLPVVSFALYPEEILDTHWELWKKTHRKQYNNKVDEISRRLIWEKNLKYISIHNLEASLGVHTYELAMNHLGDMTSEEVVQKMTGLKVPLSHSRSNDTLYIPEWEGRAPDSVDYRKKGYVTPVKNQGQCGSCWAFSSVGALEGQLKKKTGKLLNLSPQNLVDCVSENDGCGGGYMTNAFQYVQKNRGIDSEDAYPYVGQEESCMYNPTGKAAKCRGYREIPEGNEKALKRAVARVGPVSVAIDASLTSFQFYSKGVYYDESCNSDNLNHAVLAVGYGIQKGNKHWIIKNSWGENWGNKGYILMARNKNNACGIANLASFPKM
readout name: pKi

molecule	observed result
CC[C@H](C)[C@H](NC(=O)NNC(=O)[C@H](Cc1cnc[nH]1)NC(=O)[C@H](CC(C)C)NC(=O)[C@H](C)NC(=O)OCc1ccccc1)C(=O)N[C@H](C(=O)OC)C(C)C (Cbz-ALH[azaGly]IV-OMe)	9.07

[P] CC(C)C[C@H](NC(=O)OCc1ccccc1)C(=O)N[C@H](C(=O)NNC(=O)N[C@H](C(=O)OCc1ccccc1)C(C)C)C(C)C (Cbz-LV[azaGly]V-OBn)
[Q] CC[C@H](C)[C@H](NC(=O)NNC(=O)[C@@H](NC(=O)[C@H](CC(C)C)NC(=O)[C@H](C)NC(=O)OCc1ccccc1)[C@@H](C)CC)C(=O)N[C@H](C(=O)NCc1ccccc1)C(C)C (Cbz-ALI[azaGly]IV-NHBn)
Param metric = pKi; output whichever of P , Q has the minimum value. Use the label to indicate which entry you chose.
P
(P: 7.47, Q: 8.61)
